Assay: Phase I metabolic stability assay
Details: human, liver microsomes
test_readout: half-life at 1 h, 3 µM (min)
Value expressed in min; do not type the unit.

The cases that follow already have their half-life at 1 h, 3 µM on record.
> print(dat)
                                   molecule            test.readout  unit.info  assay.value
1  C=CC(=O)Nc1ccc(C(=O)NC2CCN(Cc3ccc(-c4nc5cc[nH]c(=O)c5cc4-c4ccccc4)cc3)CC2)s1 [30f]  half-life at 1 h, 3 µM        min           39
2  C=CC(=O)Nc1cc(NC(=O)NC2CCN(Cc3ccc(-c4nc5cc[nH]c(=O)c5cc4-c4ccccc4)cc3)CC2)ccc1Cl [compound 27]  half-life at 1 h, 3 µM        min           19
3  C=CC(=O)Nc1cccc(C(=O)NC2CCN(Cc3ccc(-c4nc5cc[nH]c(=O)c5cc4-c4ccccc4)cc3)CC2)c1 [30b]  half-life at 1 h, 3 µM        min           58

Any idea what its half-life at 1 h, 3 µM is? The molecule is NC1(c2ccc(-c3nc4ccn5c(=O)[nH]nc5c4cc3-c3ccccc3)cc2)CCC1 [MK-2206, reference compound]
347
